Reference source for all entries: the supplement of paper PMC11208160

experiment notes: recombinant UMI read abundance after kanamycin selection (control-corrected) (log10(CPM+1)); higher = more efficient recombination; extreme values may be limits of the assay; sequences stand for … in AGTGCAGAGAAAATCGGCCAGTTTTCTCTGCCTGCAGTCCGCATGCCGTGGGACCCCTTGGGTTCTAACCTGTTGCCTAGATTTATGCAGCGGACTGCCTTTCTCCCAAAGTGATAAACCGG…AGGTTGGTTTCACT; site = the 11-nt donor;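 further: IS621 bridge recombinase in Escherichia coli cells against a fixed T5 target plasmid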
assay readout: recombinant UMI read abundance (log10)
Quick one: just the number, no unit, thanks!

TAGCTATCATGGACCGGTTTTCCCGGTAATCCGTATTTGAA (site TAGCTACCTTT) yielded recombinant UMI read abundance (log10) of 0.0124

CCCGTTCCATGGACCGGTTTTCCCGGTAATCCGTATTTGGC (site CCCGTTCCTGC) yielded recombinant UMI read abundance (log10) of 0

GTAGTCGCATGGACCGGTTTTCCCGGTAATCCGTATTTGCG (site GTAGACGCTCG) yielded recombinant UMI read abundance (log10) of 0.714

TCTGAAGCATGGACCGGTTTTCCCGGTAATCCGTATTTGGT (site TCTGAAGCTAC) yielded recombinant UMI read abundance (log10) of 0.00288

GGCAACCCATGGACCGGTTTTCCCGGTAATCCGTATTTGTT (site GGCGACCCTAA) yielded recombinant UMI read abundance (log10) of 0.0135

TCAGAGCCATGGACCGGTTTTCCCGGTAATCCGTATTTGCG (site TCAGAGCCTCG) yielded recombinant UMI read abundance (log10) of 0.295

CGGGAACCATGGACCGGTTTTCCCGGTAATCCGTATTTGAA (site CGGGAACCTTT) yielded recombinant UMI read abundance (log10) of 0

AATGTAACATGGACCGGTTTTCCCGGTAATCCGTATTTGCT (site CATGTAACTAG) yielded recombinant UMI read abundance (log10) of 2.37

TAGGTATCATGGACCGGTTTTCCCGGTAATCCGTATTTGCG (site TAGGTATCTCG) yielded recombinant UMI read abundance (log10) of 2.92

---

experiment notes: recombinant UMI read abundance after kanamycin selection (control-corrected) (log10(CPM+1)); higher = more efficient recombination; extreme values may be limits of the assay; sequences stand for … in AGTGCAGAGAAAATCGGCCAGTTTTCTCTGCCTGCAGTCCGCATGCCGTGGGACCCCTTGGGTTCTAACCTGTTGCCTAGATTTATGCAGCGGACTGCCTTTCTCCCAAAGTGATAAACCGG…AGGTTGGTTTCACT; site = the 11-nt donor
assay readout: recombinant UMI read abundance (log10)
Quick one: just the number, no unit, thanks!

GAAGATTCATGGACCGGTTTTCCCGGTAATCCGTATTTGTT (site GAAGATTCTAG) yielded recombinant UMI read abundance (log10) of 0.838

TACAATTCATGGACCGGTTTTCCCGGTAATCCGTATTTGCC (site TACAATTCTGG) yielded recombinant UMI read abundance (log10) of 0.00632

TGTTCTCCATGGACCGGTTTTCCCGGTAATCCGTATTTGTA (site TGTTCACCTTA) yielded recombinant UMI read abundance (log10) of 0.0104

AATGTGTCATGGACCGGTTTTCCCGGTAATCCGTATTTGTC (site AATGTGTCTGT) yielded recombinant UMI read abundance (log10) of 0.364

CAGTTGACATGGACCGGTTTTCCCGGTAATCCGTATTTGGG (site CAGTTGACTCC) yielded recombinant UMI read abundance (log10) of 0.53

GCCACACCATGGACCGGTTTTCCCGGTAATCCGTATTTGTA (site GCCACCCCTTA) yielded recombinant UMI read abundance (log10) of 0.00331

CGCGGAGCATGGACCGGTTTTCCCGGTAATCCGTATTTGGT (site CGCGGAGCTAC) yielded recombinant UMI read abundance (log10) of 1.14

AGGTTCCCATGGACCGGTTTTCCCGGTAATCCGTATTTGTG (site AGCTTCCCTCA) yielded recombinant UMI read abundance (log10) of 0.0211

CGGTCATCATGGACCGGTTTTCCCGGTAATCCGTATTTGTT (site CGATCATCTAG) yielded recombinant UMI read abundance (log10) of 0

CGTCGTACATGGACCGGTTTTCCCGGTAATCCGTATTTGCT (site CGCCGTACTAG) yielded recombinant UMI read abundance (log10) of 1.22

GTAGCTGCATGGACCGGTTTTCCCGGTAATCCGTATTTGTG (site CTAGCTGCTCA) yielded recombinant UMI read abundance (log10) of 0.54

CTGCACCCATGGACCGGTTTTCCCGGTAATCCGTATTTGGC (site CTGCACCCTGC) yielded recombinant UMI read abundance (log10) of 0.469

GGTCCATCATGGACCGGTTTTCCCGGTAATCCGTATTTGTA (site GGTCCAGCTTA) yielded recombinant UMI read abundance (log10) of 0.00308

GTTTGCACATGGACCGGTTTTCCCGGTAATCCGTATTTGTA (site GTATGCACTTA) yielded recombinant UMI read abundance (log10) of 0.00807

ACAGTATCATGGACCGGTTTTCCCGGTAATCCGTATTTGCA (site ATAGTATCTTA) yielded recombinant UMI read abundance (log10) of 0

CTAGCATCATGGACCGGTTTTCCCGGTAATCCGTATTTGCC (site CTAGCATCTGG) yielded recombinant UMI read abundance (log10) of 2.4

TGCTAGGCATGGACCGGTTTTCCCGGTAATCCGTATTTGTT (site TGCTAGGCTAA) yielded recombinant UMI read abundance (log10) of 0.282

CGGACACCATGGACCGGTTTTCCCGGTAATCCGTATTTGCT (site CGGACAACTAG) yielded recombinant UMI read abundance (log10) of 0
